Data origin: patent US8110681B2

# System: SMN2-linked luciferase-reporter gene construct
# TEST SUMMARY: SMN splice reporter assay (SMN2-linked luciferase reporter, Example 10)
# Format: cell-based
# CONDITION DESCRIPTION: SMN2-linked luciferase reporter, average
pEC50: −log10 of the molar value.
MEASUREMENT KIND: pEC50

COCC(C)c1ccc(N2Cc3ccc(CC(C)C)cc3C2=O)cc1 (stereo not drawn) ... 6.75
CC(C(=O)OC(C)(C)C)c1ccc(N2Cc3ccc(Cl)cc3C2=O)cc1 (stereo not drawn) ... 5.69
COc1ccc2c(c1)C(=O)N(c1ccc(C(C)C)cc1)C2 ... 7.09
CC(C(=O)O)c1ccc(N2Cc3cccc(-c4cccs4)c3C2=O)cc1 (stereo not drawn) ... 4.94
CCCc1ccc(N2Cc3ccc(Br)cc3C2=O)cc1 ... 6.84
CC(C(=O)O)c1ccc(N2Cc3cccc(-c4ccccc4)c3C2=O)cc1 (stereo not drawn) ... 4.58
CC(C(=O)O)c1ccc(N2Cc3ccc(C(F)(F)F)cc3C2=O)cc1 (stereo not drawn) ... 5.83
CC(C)c1ccc(N2Cc3cc4c(cc3C2=O)OCCO4)cc1 ... 6.69
CC(C(=O)OCc1ccccc1)c1ccc(N2Cc3ccccc3C2=O)cc1 (stereo not drawn) ... 6.28

----------
# System: SMN2-linked luciferase-reporter gene construct
# TEST SUMMARY: SMN splice reporter assay (SMN2-linked luciferase reporter, Example 10)
# Assay type: cell-based
# CONDITION DESCRIPTION: SMN2-linked luciferase reporter, average
pEC50: −log10 of the molar value.
pEC50 values, listed per item
MEASUREMENT KIND: pEC50

CC(C)Oc1cccc2c1C(=O)N(c1ccc(C(C)C(=O)O)cc1)C2 (stereo not drawn) [ALB-113392] ... 5.31
COCc1ccc2c(c1)C(=O)N(c1ccc(C(C)C)cc1)C2 [ALB-116935] ... 7.11
CC(C(=O)OC(C)(C)C)c1ccc(N2Cc3ccc(-c4ccc(Cl)c(Cl)c4)cc3C2=O)cc1 (stereo not drawn) [ALB-112475] ... 6.94
COc1ccc2c(c1)C(=O)N(c1ccc(C3CCCCC3)cc1)C2 [ALB-115496] ... 6.25
CC(C)c1ccc(N2Cc3cccc(N(C)C)c3C2=O)cc1 [ALB-117904] ... 5.36
CCc1ccc(N2Cc3ccccc3C2=O)cc1 [ALB-114940] ... 7.01
CCC(C)c1ccc2c(c1)C(=O)N(c1ccc(C(C)C(=O)O)cc1)C2 (stereo not drawn) [ALB-114088] ... 7.11
Cc1ccc2c(c1)CN(c1ccc(C(C)C)cc1)C2=O [ALB-115948] ... 7.52
CC(C)(C)c1ccc(N2Cc3cc4c(cc3C2=O)OCCO4)cc1 [ALB-117452] ... 6.54

----------
log10 of EC50 values, listed per item
# Test system: SMN2-linked luciferase-reporter gene construct
# TEST SUMMARY: SMN splice reporter assay (SMN2-linked luciferase reporter, Example 10)
# Format: cell-based
# CONDITION DESCRIPTION: SMN2-linked luciferase reporter, average
MEASUREMENT KIND: log10 of EC50 (log10 of the value in µM)

COCC(C)c1ccc(N2Cc3ccc(OC)cc3C2=O)cc1 (stereo not drawn) [ALB-114783] ... -0.73
CC(C(=O)O)c1ccc(N2Cc3ccc(N4CCCC4)cc3C2=O)cc1 (stereo not drawn) [ALB-114739a] ... -1.24
CC(C(=O)O)c1ccc(N2Cc3ccc(C4CCCC4)cc3C2=O)cc1 (stereo not drawn) [ALB-114607] ... -1.46
COCC(C)c1ccc(N2Cc3ccccc3C2=O)cc1 (stereo not drawn) [ALB-113389] ... -0.75
CCCCCCc1cccc2c1C(=O)N(c1ccc(C(C)C(=O)O)cc1)C2 (stereo not drawn) [ALB-113495] ... 1.26
CCCc1ccc(N2Cc3ccc(C)cc3C2=O)cc1 [ALB-116071] ... -1.80
CC(C(=O)NS(=O)(=O)N(C)C)c1ccc(N2Cc3ccccc3C2=O)cc1 (stereo not drawn) [ALB-111749] ... 1.15
CC(=O)Nc1ccc2c(c1)C(=O)N(c1ccc(C(C)C(=O)OC(C)(C)C)cc1)C2 (stereo not drawn) [ALB-111960] ... 0.82
CC(C(=O)O)c1ccc(N2Cc3cc(F)ccc3C2=O)cc1 (stereo not drawn) [ALB-113754] ... -0.85

----------
MEASUREMENT KIND: melting point

COCC(C)c1ccc(N2Cc3ccc(OC)cc3C2=O)cc1 (stereo not shown) [Example 4] ... 116 to 118 °C
CC(C)c1ccc(N2Cc3ccc(Cl)cc3C2=O)cc1 [Example 5] ... 206 to 209 °C
CCCc1ccc2c(c1)C(=O)N(c1ccc(C(C)C(=O)O)cc1)C2 (stereo not shown) [Example 2] ... 175 to 177 °C
CC(C)c1ccc(N2Cc3ccc([N+](=O)[O-])cc3C2=O)cc1 [Example 6] ... 225 to 227 °C

----------
# Tested on: SMN2-linked luciferase-reporter gene construct
# TEST SUMMARY: SMN splice reporter assay (SMN2-linked luciferase reporter, Example 10)
# Type: cell-based
# CONDITION DESCRIPTION: SMN2-linked luciferase reporter, average
pEC50: −log10 of the molar value.
Classification field: enter True for pEC50 values not below 7, False for values below it.

COCc1ccc2c(c1)C(=O)N(c1ccc(C(C)CO)cc1)C2 (stereo not drawn) ... False
C/C=C(\C)c1ccc2c(c1)C(=O)N(c1ccc(C(C)C(=O)O)cc1)C2 (stereo not drawn) ... False
CC(C)c1ccc(N2Cc3ccc(N(C)S(C)(=O)=O)cc3C2=O)cc1 ... False
CCc1ccc(N2Cc3cc4c(cc3C2=O)OCCO4)cc1 ... True
CC(C)c1ccc(N2Cc3ccc(N(C)C)cc3C2=O)cc1 ... True
CC(C(=O)O)c1ccc(N2Cc3ccc(-c4cccs4)cc3C2=O)cc1 (stereo not drawn) ... False

----------
# TEST SUMMARY: Plasma and brain pharmacokinetics in mice
# Type: in vivo, FVB or CD-1 mice
# CONDITION DESCRIPTION: mouse, brain and plasma, 25 mg/kg, oral, single dose, read-out: Brain/Plasma Ratio
# Method: Compounds were formulated in solution using the method of cosolvency as described by Lee et al., Int. J. Pharmaceutics, 253: 111-119 (2003). […] Tissues were homogenized in acetonitrile and analyzed on an API 4000 LC/MS/MS system coupled with an Agilent 1100 series liquid chromatograph. All pharmacokinetic analyses were conducted using WinNonlin (Version 4.01; Pharsight, Palo Alto, Calif.) with the exception of brain/plasma ratios, which were calculated using Microsoft Excel 2000. […]
MEASUREMENT KIND: Kp

COc1ccc2c(c1)C(=O)N(c1ccc(C(C)(C)C)cc1)C2 ... 15

----------
# Test system: SMN2-linked luciferase-reporter gene construct
# TEST SUMMARY: SMN splice reporter assay (SMN2-linked luciferase reporter, Example 10)
# Type: cell-based
# CONDITION DESCRIPTION: SMN2-linked luciferase reporter; average maximum fold increase; read-out: SMN Splice Reporter Assay (Example 10) Avg MaxFold Increase
MEASUREMENT KIND: maximal fold induction

CC(C)(C)c1ccc(N2Cc3cc4c(cc3C2=O)OCCO4)cc1 ... 1.4
CCNC(=O)Nc1ccc2c(c1)C(=O)N(c1ccc(C(C)C)cc1)C2 ... 1.35
CC(C)c1ccc(N2Cc3cc(OC(F)F)ccc3C2=O)cc1 ... 1.32
O=C1c2cc3c(cc2CN1c1ccc(C2CCCCC2)cc1)OCCO3 ... 1.11
CC(C)(C)c1ccc(N2Cc3ccc(OC(F)F)cc3C2=O)cc1 ... 1.39
O=C1c2ccccc2CN1c1ccc(C2CC2)cc1 ... 1.28
CC(C)c1ccc(N2Cc3ccc4c(c3C2=O)OCCO4)cc1 ... 1.43
CC(C)c1ccc(N2Cc3ccc(N(C)S(C)(=O)=O)cc3C2=O)cc1 ... 1.51

----------
# System: SMN2-linked luciferase-reporter gene construct
# TEST SUMMARY: SMN splice reporter assay (SMN2-linked luciferase reporter, Example 10)
# Format: cell-based
# CONDITION DESCRIPTION: SMN2-linked luciferase reporter, average
pEC50: −log10 of the molar value.
Classification field. Basis: pEC50. Definitions: low band: < 6; middle band: ≥ 6 and < 7; high band: ≥ 7

CC(C(=O)O)c1ccc(N2Cc3ccc(OC(F)F)cc3C2=O)cc1 (centres unmarked) ... high band
CC(C(=O)O)c1ccc(N2Cc3ccc(Cl)cc3C2=O)cc1 (centres unmarked) ... middle band
CC(C(=O)OC(C)(C)C)c1ccc(N2Cc3ccc(N)cc3C2=O)cc1 (centres unmarked) ... low band
CCCc1ccc2c(c1)C(=O)N(c1ccc(C(C)C(=O)O)cc1)C2 (centres unmarked) ... high band
C[C@@H](C(=O)O)c1ccc(N2Cc3ccccc3C2=O)cc1 ... middle band
CC(C(=O)O)c1ccc(N2Cc3cc(Cl)ccc3C2=O)cc1 (centres unmarked) ... middle band
CC(C(=O)O)c1ccc(N2CC3CCCCC3C2=O)cc1 (centres unmarked) ... low band
Cc1ccc(-c2ccc3c(c2)C(=O)N(c2ccc(C(C)C(=O)O)cc2)C3)cc1 (centres unmarked) ... low band
CC(C)c1ccc(N2Cc3cc(N(C)C)ccc3C2=O)cc1 ... high band
CC(C(=O)OC(C)(C)C)c1ccc(N2Cc3cccc(Cl)c3C2=O)cc1 (centres unmarked) ... low band
CCCc1cccc2c1C(=O)N(c1ccc(C(C)C(=O)O)cc1)C2 (centres unmarked) ... low band
COc1ccc2c(c1)C(=O)N(c1ccc(C3CCCC3)cc1)C2 ... middle band
CC(C(=O)O)c1ccc(N2Cc3cc4c(cc3C2=O)OCCO4)cc1 (centres unmarked) ... high band
Cc1ccc2c(c1)C(=O)N(c1ccc(C(C)(C)C)cc1)C2 ... high band
